TARGET ENTITY: T1, mouse GIP receptor (mouse, UniProt Q0P543 19-460)
T1 sequence: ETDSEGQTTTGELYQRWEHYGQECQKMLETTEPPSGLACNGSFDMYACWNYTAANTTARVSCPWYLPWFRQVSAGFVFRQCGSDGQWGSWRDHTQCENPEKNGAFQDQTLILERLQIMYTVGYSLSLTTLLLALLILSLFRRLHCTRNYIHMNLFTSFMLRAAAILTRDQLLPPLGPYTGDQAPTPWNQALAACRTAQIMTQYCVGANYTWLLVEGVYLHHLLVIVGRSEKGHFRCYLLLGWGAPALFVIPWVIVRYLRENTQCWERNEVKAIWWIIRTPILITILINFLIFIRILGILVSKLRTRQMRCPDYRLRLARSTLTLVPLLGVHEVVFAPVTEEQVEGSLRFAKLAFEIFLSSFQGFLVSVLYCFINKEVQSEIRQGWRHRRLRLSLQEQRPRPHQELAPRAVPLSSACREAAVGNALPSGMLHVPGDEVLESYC
EXPERIMENT SUMMARY: radioligand binding
*1 amine or outer side, *2 acyl side, *3 side chain or, on linkers, in order; H or OH if unused. Where no end group is shown, it is not given here. Side-chain parts run from the residue outwards. The star is where a group is joined. C18 diacid = O=C(O)CCCCCCCCCCCCCCCCC(=O)*; γGlu = O=C(O)[C@H](CCC(=O)[*:2])N[*:1]; AEEA = NCCOCCOCC(=O)O
Would you mind telling me the reported pIC50 of each entry?
Numbers only, as −log10 of the molar value.

# annotated cases, reported pIC50 shown
binder="Ac-TFISDYK(C18 diacid)IALDKIRQQEFVNWLLAQKG [[Nα-Ac, L14, R18, E21] hGIP(5-31)-K11 (-C18-OH)]" measured_parameter=pIC50 numeric_result=8.27
binder="Ac-TFISDYK([AEEA-AEEA-C18 diacid])IALDKIRQQEFVNWLLAQKG [[Nα-Ac, L14, R18, E21] hGIP(5-31)-K11(OEG2-C18-OH)]" measured_parameter=pIC50 numeric_result=8.06

In plain terms, Ac-TFISDYK([AEEA-AEEA-γGlu-C18 diacid])IALDKIRQQEFVNWLLAQKG [[Nα-Ac, L14, R18, E21] hGIP(5-31)-K11(OEG2-γE-C18-OH)] has a documented pIC50 of 7.61

Cited source for all entries: paper PMC9719863
